- Tested on: Setaria faberi (SETFA)
- experiment summary: Example B post-emergence herbicidal greenhouse test
- Format: in vivo
- condition set: 360 h, evaluated after 15 days, 100=total damage to plant, 0=no damage
measured parameter: pest or weed control at 125 g/ha (%)
Give bare numbers, in %.

Your task in this section: give pest or weed control at 125 g/ha for each listed record.
1. CCc1cc(-c2ccc(Cl)cc2)ccc1C1=C(OC(C)=O)[C@@H]2CC[C@@H](C2)C1=O
2. CCc1ccc(-c2ccc(Cl)c(C)c2)cc1C1=C(O)[C@H]2CC[C@H](C2)C1=O
3. Cc1ccc(-c2ccc(Cl)c(C#N)c2)cc1C1=C(O)[C@H]2CC[C@H](C2)C1=O (single isomer, unassigned)
4. CCc1ccc(-c2ccccc2)cc1C1=C(O)[C@H]2CC[C@H](C2)C1=O (single isomer, unassigned)

Reply:
1: 80; 2: 30; 3: 30; 4: 30
